- subject of test: recombinant hGYS1/GN1 protein (Homo sapiens, UniProt P13807)
- Sequence (P13807 1-737): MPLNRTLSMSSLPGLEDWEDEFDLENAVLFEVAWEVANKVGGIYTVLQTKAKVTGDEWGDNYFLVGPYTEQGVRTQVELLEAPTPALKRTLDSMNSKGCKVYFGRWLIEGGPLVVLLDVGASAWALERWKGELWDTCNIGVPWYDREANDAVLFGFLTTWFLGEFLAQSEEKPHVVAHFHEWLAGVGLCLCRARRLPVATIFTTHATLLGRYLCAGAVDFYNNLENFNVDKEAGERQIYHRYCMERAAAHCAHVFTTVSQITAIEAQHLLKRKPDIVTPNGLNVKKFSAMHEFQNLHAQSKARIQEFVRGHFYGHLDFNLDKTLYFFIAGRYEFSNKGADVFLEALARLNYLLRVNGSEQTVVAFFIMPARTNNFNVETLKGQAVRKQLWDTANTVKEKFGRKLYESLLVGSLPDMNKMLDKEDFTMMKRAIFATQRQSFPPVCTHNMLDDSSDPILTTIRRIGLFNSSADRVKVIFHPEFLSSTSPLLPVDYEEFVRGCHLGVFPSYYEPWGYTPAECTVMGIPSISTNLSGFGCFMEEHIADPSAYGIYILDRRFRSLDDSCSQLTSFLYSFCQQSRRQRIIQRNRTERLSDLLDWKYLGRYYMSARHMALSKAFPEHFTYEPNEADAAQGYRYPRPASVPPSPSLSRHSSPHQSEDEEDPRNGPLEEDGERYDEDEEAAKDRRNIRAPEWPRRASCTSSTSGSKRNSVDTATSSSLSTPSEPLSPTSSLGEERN
- Sequence (P46976 1-350 partner): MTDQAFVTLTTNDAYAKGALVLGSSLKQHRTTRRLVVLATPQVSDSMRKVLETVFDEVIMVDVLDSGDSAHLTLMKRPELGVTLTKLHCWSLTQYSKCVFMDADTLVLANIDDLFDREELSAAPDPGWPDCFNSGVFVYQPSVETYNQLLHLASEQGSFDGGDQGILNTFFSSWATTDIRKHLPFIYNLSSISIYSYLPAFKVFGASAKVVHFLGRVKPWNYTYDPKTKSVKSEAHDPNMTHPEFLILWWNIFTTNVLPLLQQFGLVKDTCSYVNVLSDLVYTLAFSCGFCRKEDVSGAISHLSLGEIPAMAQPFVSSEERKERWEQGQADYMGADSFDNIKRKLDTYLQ
- method summary: GYS1 coupled enzyme assay (PK/LDH, NADH absorbance at 340 nm)
- Format: biochemical
- experimental parameters: geometric mean of at least 2 assay runs on separate days; hGYS1/GN1 50 nM, Glucose-6-Phosphate 1 mM, UDP-Glucose 0.8 mM
assay metric: IC50 (nM)

Cc1cn(CC(=O)N2C[C@H](F)C[C@H]2C(=O)N[C@@H](c2ccccc2)c2ccc(C3CC3)c(F)n2)c(=O)n(CCOCCOCCn2c(=O)c(C)cn(CC(=O)N3C[C@H](F)C[C@H]3C(=O)N[C@@H](c3ccccc3)c3ccc(C4CC4)c(F)n3)c2=O)c1=O    5.3

I: Cc1cn(CC(=O)N2C[C@H](F)C[C@H]2C(=O)N[C@@H](c2ccccc2)c2ccc(C3CC3)c(F)n2)c(=O)nc1OCCOc1nc(=O)n(CC(=O)N2C[C@H](F)C[C@H]2C(=O)N[C@@H](c2ccccc2)c2ccc(C3CC3)c(F)n2)cc1C
II: O=C(COCCOCCOCCOCCOCCOCCOCCOCCOCCOCCOCC(=O)N[C@@H](c1ccccc1)c1ccc(C2CC2)c(F)n1)N[C@@H](c1ccccc1)c1ccc(C2CC2)c(F)n1
III: Cc1cn(CC(=O)N2C[C@H](F)C[C@H]2C(=O)N[C@@H](c2ccccc2)c2ccc(C3CC3)c(F)n2)c(=O)n(CCOCCn2c(=O)c(C)cn(CC(=O)N3C[C@H](F)C[C@H]3C(=O)N[C@@H](c3ccccc3)c3ccc(C4CC4)c(F)n3)c2=O)c1=O
-- ask Your job: order these 3 records by IC50, ascending. Reply format: the labels, ordered as requested.
-- reply III, I, II
(III: 4.9 nM, I: 23 nM, II: 7500 nM)
